assay: chemical genetic growth profiling, strain panel (AID 1159580);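 note: tested at 20 µM; growth read once vehicle control cultures reached saturation at 30 °C; lower values mean less growth of the strain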; conditions: S. cerevisiae deletion strains, growth OD, locus YLL041C, strain sdh2
The campaign covered roughly 5,500 compounds. About 2,000 (36%) were called active. About 18% were inconclusive and are not listed. Cut-off read from the data, not from the text of the source: active = normalized growth mostly below about 0.91 (no sharp cut-off); inconclusive = no clear call, values can overlap the other calls; inactive = mostly above about 0.92. Some of the results follow.
Pick from Y = active, N = inactive when you respond.

Field: example entries. Status: answers known.
compound=CC(C)[C@@H]1CC[C@@H](C)C[C@H]1O label=N
compound=C=C1C(=O)O[C@@H]2C[C@@]3(C)CCC[C@H](C)C3=C[C@H]12 label=Y
compound="C[C@@H]1C(=O)OC2[C@H](O)C34[C@@H]5OC(=O)[C@@]3(O[C@@H]3OC(=O)[C@H](O)[C@@]34[C@H](C(C)(C)C)[C@H]5O)[C@]21O (some centres undefined)" label=N

Which outcome was entered for the compound `CC1(C)NC(=O)N(c2ccc([N+](=O)[O-])c(C(F)(F)F)c2)C1=O` in this test?
N

Which outcome was entered for the compound `COc1ccc(CCN2CCC(Nc3nc4ccccc4n3Cc3ccc(F)cc3)CC2)cc1` in this test?
N

Which outcome was entered for the compound CC(C)COCC(CN(Cc1ccccc1)c1ccccc1)N1CCCC1 (centres undefined) in this test?
N

Which outcome was entered for the compound `Cc1ccc(C)c(OCCCC(C)(C)C(=O)O)c1` in this test?
N

Which outcome was entered for the compound `O=C(O)CN(CC(=O)O)Cc1cc2c(-c3ccccc3C(=O)O)c3cc(CN(CC(=O)O)CC(=O)O)c(=O)cc-3oc2cc1O` in this test?
N

Which outcome was entered for the compound NS(=O)(=O)c1cc2c(cc1Cl)NC(C(Cl)Cl)NS2(=O)=O (centres undefined) in this test?
N
